SUBJECT OF TEST: T1, human CD26-derived 13 mer peptide 119 (human)
T1 peptide: SIQITAPASMLIG
PROTOCOL NOTES: peptide microarray
Recorded Mean Signal Value values for a group of binders are listed next.

# BINDER, Mean Signal Value
measured = [
    ("rhuMAb 420 (antibody, human IgG1, V domains shown, X420 VH and X380 VL with human IgG1 and human kappa constant regions; also called X420 (IgG1)) VH: EVQLVESGGGVKQPGETLRLTCTASGFSLSTYGVHWVRQAPGKGLEWVGVIWGDGRTDYDAAFMSRVTISKDTSKSTVYLQMNSLRAEDTAVYYCMRNRHDWFDYWGQGTTVTVSS VL: EIEMTQSPSSLSVSAGERATISCSASQDIRNSLNWYQQKPGQAPRLLIYYSSNLHTGVPARFSGSGSGTDFTLTISRLEPEDVAIYYCQQSNKLPLTFGSGTKVEIKR", 0),
    ("rhuMAb 411 (antibody, human IgG1, kappa, V domains shown, also called X411) VH: EVQLVESGAGVKQPGGTLRLTCTASGFSLTTYGVHWVRQAPGKGLEWVGVIWGDGRTDYDAAFMSRVTISKDTSKSTVYLQMNSLRAEDTAVYYCMRNRHDWFDYWGQGTTVTVSS VL: DILLTQSPSSLSATPGERATITCRASQGIRNNLNWYQQKPGQAPRLLIYYSSNLQSGVPSRFSGSGSGTDFTLTISRLQPEDVAAYYCQQSIKLPFTFGSGTKVEIKR", 0.024),
    ("rhuMAb 412 (antibody, human IgG1, V domains shown, X385 VH and X380 VL with human IgG1 and human kappa constant regions; also called X412) VH: EVQLVQSGGGVKQPGETLRLTCTASGFSLTTYGVHWVRQAPGKGLEWVGVIWGDGRTDYDAAFMSRVTISKDTSKSTAYLQMNSLRAEDTAVYYCMRNRHDWFDYWGQGTTVTVSS VL: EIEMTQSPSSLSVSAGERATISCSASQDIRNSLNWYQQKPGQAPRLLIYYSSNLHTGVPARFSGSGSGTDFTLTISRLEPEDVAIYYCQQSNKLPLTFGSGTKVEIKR", 0),
]
